# experimentalTarget: HLA-B*40:01
# procedureText: IEDB peptide-MHC binding, purified MHC/direct/fluorescence; filed as Kd, often an IC50 or EC50 that approximates it; bounds were set here for any values at or beyond the usual limits of such assays
# assaySetup: source organism: Giardia lamblia ATCC 50803
readoutLabel: Kd

API: value(readout=Kd, system=HLA-B*40:01) for record VAAKGAPAL
≥ 20 µM

* * *

# experimentalTarget: HLA-B*07:02
# procedureText: IEDB peptide-MHC binding, purified MHC/direct/fluorescence; filed as Kd, often an IC50 or EC50 that approximates it; bounds were set here for any values at or beyond the usual limits of such assays
# assaySetup: source organism: Vibrio parahaemolyticus
readoutLabel: Kd

Could you tell me which Kd is on file for ILRPLGIEY ?
≥ 20 µM

* * *

# experimentalTarget: HLA-A*69:01
# procedureText: IEDB peptide-MHC binding, purified MHC/competitive/fluorescence; filed as Kd, often an IC50 or EC50 that approximates it; bounds were set here for any values at or beyond the usual limits of such assays
# assaySetup: source organism: Vibrio vulnificus YJ016
pKd: −log10 of the molar value.
readoutLabel: pKd

itemsequence=VTFGARASF readoutlabel=pKd result="≤ 4.70"

Could you tell me which pKd is on file for TSCAPMMQK ?
≤ 4.70

* * *

# experimentalTarget: HLA-B*58:01
# procedureText: IEDB peptide-MHC binding, purified MHC/direct/fluorescence; filed as Kd, often an IC50 or EC50 that approximates it; bounds were set here for any values at or beyond the usual limits of such assays
# assaySetup: source organism: Giardia lamblia ATCC 50803
readoutLabel: pKd
Here pKd is given on a logarithmic scale as minus log10 of the concentration in mol/L.

Could you tell me which pKd is on file for VAAKGAPAL ?
6.02

* * *

# experimentalTarget: HLA-A*02:02
# procedureText: IEDB peptide-MHC binding, purified MHC/competitive/radioactivity; filed as Kd, often an IC50 or EC50 that approximates it; bounds were set here for any values at or beyond the usual limits of such assays
# assaySetup: source organism: Trypanosoma cruzi
readoutLabel: Kd (nM)
Could you give me the number in nM? Just the number is fine.

API: value(readout=Kd, system=HLA-A*02:02) for record LVGLWGAAAL
89.7

* * *

# experimentalTarget: HLA-C*14:02
# procedureText: IEDB peptide-MHC binding, purified MHC/direct/fluorescence; filed as Kd, often an IC50 or EC50 that approximates it; bounds were set here for any values at or beyond the usual limits of such assays
# assaySetup: source organism: Influenza A virus (A/swine/Italy/1509-6/97(H1N1))
readoutLabel: pKd
Here pKd is given on a logarithmic scale as minus log10 of the concentration in mol/L.

itemsequence=WMACHSAAF readoutlabel=pKd result=7.37

Query sequence follows.
Could you tell me which pKd is on file for ATYQRTRAL ?
6.61

* * *

# experimentalTarget: HLA-A*02:17
# procedureText: IEDB peptide-MHC binding, purified MHC/competitive/radioactivity; filed as Kd, often an IC50 or EC50 that approximates it; bounds were set here for any values at or beyond the usual limits of such assays
# assaySetup: source organism: Dengue virus 1 Singapore/S275/1990
readoutLabel: Kd
Include the unit after the number when you answer.

itemsequence=VLMLVAHYA result="13.2 µM"

Query sequence follows.
Could you tell me which Kd is on file for LMLLALIAV ?
0.553 µM

* * *

# experimentalTarget: HLA-A*24:02
# procedureText: IEDB peptide-MHC binding, purified MHC/competitive/radioactivity; filed as Kd, often an IC50 or EC50 that approximates it; bounds were set here for any values at or beyond the usual limits of such assays
# assaySetup: source organism: Mammarenavirus juninense
readoutLabel: pKd
Here pKd is given on a logarithmic scale as minus log10 of the concentration in mol/L.

Could you tell me which pKd is on file for LVIASLPLF ?
6.32

* * *

# experimentalTarget: HLA-B*15:17
# procedureText: IEDB peptide-MHC binding, purified MHC/direct/fluorescence; filed as Kd, often an IC50 or EC50 that approximates it; bounds were set here for any values at or beyond the usual limits of such assays
# assaySetup: source organism: Salmonella enterica
pKd: −log10 of the molar value.
readoutLabel: pKd

Could you tell me which pKd is on file for NVHRSQFAQ ?
≤ 4.70

* * *

# experimentalTarget: HLA-A*02:19
# procedureText: IEDB peptide-MHC binding, purified MHC/competitive/fluorescence; filed as Kd, often an IC50 or EC50 that approximates it; bounds were set here for any values at or beyond the usual limits of such assays
# assaySetup: source organism: Cryptosporidium parvum Iowa II
pKd: −log10 of the molar value.
readoutLabel: pKd

Could you tell me which pKd is on file for DLAQDPMLI ?
≤ 4.70

* * *

# experimentalTarget: HLA-B*15:17
# procedureText: IEDB peptide-MHC binding, purified MHC/competitive/fluorescence; filed as Kd, often an IC50 or EC50 that approximates it; bounds were set here for any values at or beyond the usual limits of such assays
# assaySetup: source organism: Brucella suis 1330
readoutLabel: Kd

Could you tell me which Kd is on file for TEWPQLKVA ?
≥ 20 µM

* * *

# experimentalTarget: HLA-A*02:03
# procedureText: IEDB peptide-MHC binding, purified MHC/competitive/fluorescence; filed as Kd, often an IC50 or EC50 that approximates it; bounds were set here for any values at or beyond the usual limits of such assays
# assaySetup: source organism: Influenza A virus (A/red knot/Delaware/2561/1987(H10N5))
readoutLabel: Kd

Could you tell me which Kd is on file for VMTDGPANK ?
≥ 20 µM

* * *

# key: entry, value: pKd
# experimentalTarget: HLA-B*07:02
# procedureText: IEDB peptide-MHC binding, purified MHC/competitive/radioactivity; filed as Kd, often an IC50 or EC50 that approximates it; bounds were set here for any values at or beyond the usual limits of such assays
# assaySetup: source organism: Triticum aestivum
Here pKd is given on a logarithmic scale as minus log10 of the concentration in mol/L.

Could you tell me which pKd is on file for QPFPQPQLPY ?
6.26

Could you tell me which pKd is on file for IPEQSQCQAI ?
5.23

Could you tell me which pKd is on file for QPFPQPQL ?
6.23

* * *

# experimentalTarget: HLA-A*69:01
# procedureText: IEDB peptide-MHC binding, purified MHC/direct/fluorescence; filed as Kd, often an IC50 or EC50 that approximates it; bounds were set here for any values at or beyond the usual limits of such assays
# assaySetup: source organism: Yersinia enterocolitica subsp. enterocolitica 8081
readoutLabel: Kd

Could you tell me which Kd is on file for KSRQGDTKV ?
≥ 20 µM

* * *

# experimentalTarget: HLA-B*27:03
# procedureText: IEDB peptide-MHC binding, purified MHC/competitive/fluorescence; filed as Kd, often an IC50 or EC50 that approximates it; bounds were set here for any values at or beyond the usual limits of such assays
# assaySetup: source organism: Cryptosporidium parvum Iowa II
readoutLabel: Kd

Could you tell me which Kd is on file for DLAQDPMLI ?
≥ 20 µM

* * *

# experimentalTarget: HLA-A*68:02
# procedureText: IEDB peptide-MHC binding, purified MHC/competitive/fluorescence; filed as Kd, often an IC50 or EC50 that approximates it; bounds were set here for any values at or beyond the usual limits of such assays
# assaySetup: source organism: Burkholderia mallei NCTC 10229
readoutLabel: pKd
Here pKd is given on a logarithmic scale as minus log10 of the concentration in mol/L.

Could you tell me which pKd is on file for ELWDPSTEA ?
7.11

* * *

# experimentalTarget: HLA-A*24:03
# procedureText: IEDB peptide-MHC binding, purified MHC/competitive/fluorescence; filed as Kd, often an IC50 or EC50 that approximates it; bounds were set here for any values at or beyond the usual limits of such assays
# assaySetup: source organism: Cryptosporidium parvum Iowa II
readoutLabel: Kd

Could you tell me which Kd is on file for DLAQDPMLI ?
≥ 20 µM

* * *

# experimentalTarget: HLA-A*02:03
# procedureText: IEDB peptide-MHC binding, purified MHC/competitive/fluorescence; filed as Kd, often an IC50 or EC50 that approximates it; bounds were set here for any values at or beyond the usual limits of such assays
# assaySetup: source organism: Brucella suis 1330
pKd: −log10 of the molar value.
readoutLabel: pKd

Could you tell me which pKd is on file for TEWPQLKVA ?
≤ 4.70

* * *

# experimentalTarget: HLA-B*58:01
# procedureText: IEDB peptide-MHC binding, purified MHC/direct/fluorescence; filed as Kd, often an IC50 or EC50 that approximates it; bounds were set here for any values at or beyond the usual limits of such assays
# assaySetup: source organism: Influenza A virus (A/Wisconsin/4755/1994(H1N1))
readoutLabel: pKd
Here pKd is given on a logarithmic scale as minus log10 of the concentration in mol/L.

Could you tell me which pKd is on file for YRYTYRCHR ?
6.23

* * *

# experimentalTarget: HLA-A*11:01
# procedureText: IEDB peptide-MHC binding, purified MHC/competitive/radioactivity; filed as Kd, often an IC50 or EC50 that approximates it; bounds were set here for any values at or beyond the usual limits of such assays
# assaySetup: source organism: Mammarenavirus juninense
pKd: −log10 of the molar value.
readoutLabel: pKd

Could you tell me which pKd is on file for TAVAKCNLNH ?
≤ 4.16

Value source: the Immune Epitope Database (IEDB)
